assayed.target: p110δ/p85α (PI3K p110 delta) (Homo sapiens)
Construct: Dundee, UK
Sequence (O00329 whole entry): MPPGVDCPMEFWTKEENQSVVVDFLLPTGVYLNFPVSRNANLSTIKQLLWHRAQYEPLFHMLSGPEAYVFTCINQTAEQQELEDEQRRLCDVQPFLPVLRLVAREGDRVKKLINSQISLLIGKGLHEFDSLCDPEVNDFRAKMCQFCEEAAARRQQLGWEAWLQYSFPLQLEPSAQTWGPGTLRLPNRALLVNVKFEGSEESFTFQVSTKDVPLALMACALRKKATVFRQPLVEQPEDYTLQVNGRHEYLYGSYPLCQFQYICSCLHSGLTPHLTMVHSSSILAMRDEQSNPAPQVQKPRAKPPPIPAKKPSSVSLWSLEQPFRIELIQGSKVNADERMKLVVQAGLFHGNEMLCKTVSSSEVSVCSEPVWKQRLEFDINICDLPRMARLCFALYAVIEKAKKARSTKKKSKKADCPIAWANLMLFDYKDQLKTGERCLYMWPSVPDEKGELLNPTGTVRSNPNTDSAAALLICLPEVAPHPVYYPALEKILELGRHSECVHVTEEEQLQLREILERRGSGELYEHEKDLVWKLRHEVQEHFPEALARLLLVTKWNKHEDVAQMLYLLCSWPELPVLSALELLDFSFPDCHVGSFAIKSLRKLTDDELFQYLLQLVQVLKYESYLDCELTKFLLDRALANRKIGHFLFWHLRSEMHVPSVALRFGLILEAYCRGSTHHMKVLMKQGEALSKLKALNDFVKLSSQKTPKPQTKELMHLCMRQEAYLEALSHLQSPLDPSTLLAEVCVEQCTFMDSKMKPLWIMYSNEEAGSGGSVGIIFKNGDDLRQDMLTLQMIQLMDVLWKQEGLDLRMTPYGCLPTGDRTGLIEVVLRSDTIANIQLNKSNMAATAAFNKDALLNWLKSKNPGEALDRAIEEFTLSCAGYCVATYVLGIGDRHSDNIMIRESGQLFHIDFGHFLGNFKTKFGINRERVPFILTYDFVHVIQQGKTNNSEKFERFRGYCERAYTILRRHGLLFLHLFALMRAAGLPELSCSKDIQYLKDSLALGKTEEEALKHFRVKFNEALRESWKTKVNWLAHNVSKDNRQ
Sequence (P27986 whole entry partner): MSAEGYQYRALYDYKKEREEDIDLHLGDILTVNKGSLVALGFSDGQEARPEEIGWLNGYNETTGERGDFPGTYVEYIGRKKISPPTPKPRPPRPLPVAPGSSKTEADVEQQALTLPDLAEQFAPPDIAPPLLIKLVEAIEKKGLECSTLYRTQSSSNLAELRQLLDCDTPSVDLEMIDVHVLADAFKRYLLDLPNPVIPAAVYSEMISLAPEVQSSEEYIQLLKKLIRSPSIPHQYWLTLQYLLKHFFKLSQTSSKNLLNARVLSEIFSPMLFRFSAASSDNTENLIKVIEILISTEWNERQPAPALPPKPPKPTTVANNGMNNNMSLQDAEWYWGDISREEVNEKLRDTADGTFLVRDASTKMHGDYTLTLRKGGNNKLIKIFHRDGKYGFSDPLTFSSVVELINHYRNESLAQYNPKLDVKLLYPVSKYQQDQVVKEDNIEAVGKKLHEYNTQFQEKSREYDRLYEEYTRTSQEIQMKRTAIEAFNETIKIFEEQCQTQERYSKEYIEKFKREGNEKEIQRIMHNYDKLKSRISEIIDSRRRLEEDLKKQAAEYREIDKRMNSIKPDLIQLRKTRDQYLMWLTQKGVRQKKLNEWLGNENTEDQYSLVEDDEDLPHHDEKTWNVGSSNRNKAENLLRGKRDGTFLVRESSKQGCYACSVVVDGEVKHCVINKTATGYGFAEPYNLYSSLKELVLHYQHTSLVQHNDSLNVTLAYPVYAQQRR
experiment.description: PI3K isoform inhibition assay (fluorescence polarization PIP3 displacement; alternatively radiometric), p110 delta
condition.label: PI3K p110 delta binding IC50
As shown below, each of these compounds has a reported pIC50 value.
Convention used: pIC50 is expressed as -log10 of the molar concentration.

Recorded pIC50 for COC(C)(C)C1CCN(Cc2nc3c(N4CCOCC4)nc(-c4c(C)oc5ccccc45)nc3n2C)CC1 with p110δ/p85α (PI3K p110 delta) (Homo sapiens), please? 7.65

Recorded pIC50 for Cn1c(CN2CC(C3CCOCC3)C2)nc2c(N3CCOCC3)nc(-n3c(C4CC4)nc4ccccc43)nc21 with p110δ/p85α (PI3K p110 delta) (Homo sapiens), please? 8.20

Recorded pIC50 for CCc1nc2ccccc2n1-c1nc(N2CCOCC2)c2nc(CC(=O)N3CCC(C(C)(C)O)CC3)sc2n1 with p110δ/p85α (PI3K p110 delta) (Homo sapiens), please? 8.03

Recorded pIC50 for CCc1nc2ccccc2n1-c1nc(N2CCOCC2)c2nc(CN3CCN(C(C)(C)CO)CC3)[nH]c2n1 with p110δ/p85α (PI3K p110 delta) (Homo sapiens), please? 8.86

New cases:
Recorded pIC50 for CCc1nc2ccccc2n1-c1nc(N2CCOCC2)c2nc(CN3C[C@@H]4C[C@H]3CN4C(C)(C)CO)n(C)c2n1 with p110δ/p85α (PI3K p110 delta) (Homo sapiens), please? 8.84

Recorded pIC50 for Cc1c(CN2CCN(C(C)(C)C(N)=O)CC2)sc2c(N3CCOCC3)nc(-c3cncc4[nH]ccc34)nc12 with p110δ/p85α (PI3K p110 delta) (Homo sapiens), please? 8.74
